The measured values listed here are drawn from ChEMBL document CHEMBL1128893.

- study_system: Sodium channel protein type 2 subunit alpha (Homo sapiens, UniProt Q99250)
- Sequence (Q99250 whole entry): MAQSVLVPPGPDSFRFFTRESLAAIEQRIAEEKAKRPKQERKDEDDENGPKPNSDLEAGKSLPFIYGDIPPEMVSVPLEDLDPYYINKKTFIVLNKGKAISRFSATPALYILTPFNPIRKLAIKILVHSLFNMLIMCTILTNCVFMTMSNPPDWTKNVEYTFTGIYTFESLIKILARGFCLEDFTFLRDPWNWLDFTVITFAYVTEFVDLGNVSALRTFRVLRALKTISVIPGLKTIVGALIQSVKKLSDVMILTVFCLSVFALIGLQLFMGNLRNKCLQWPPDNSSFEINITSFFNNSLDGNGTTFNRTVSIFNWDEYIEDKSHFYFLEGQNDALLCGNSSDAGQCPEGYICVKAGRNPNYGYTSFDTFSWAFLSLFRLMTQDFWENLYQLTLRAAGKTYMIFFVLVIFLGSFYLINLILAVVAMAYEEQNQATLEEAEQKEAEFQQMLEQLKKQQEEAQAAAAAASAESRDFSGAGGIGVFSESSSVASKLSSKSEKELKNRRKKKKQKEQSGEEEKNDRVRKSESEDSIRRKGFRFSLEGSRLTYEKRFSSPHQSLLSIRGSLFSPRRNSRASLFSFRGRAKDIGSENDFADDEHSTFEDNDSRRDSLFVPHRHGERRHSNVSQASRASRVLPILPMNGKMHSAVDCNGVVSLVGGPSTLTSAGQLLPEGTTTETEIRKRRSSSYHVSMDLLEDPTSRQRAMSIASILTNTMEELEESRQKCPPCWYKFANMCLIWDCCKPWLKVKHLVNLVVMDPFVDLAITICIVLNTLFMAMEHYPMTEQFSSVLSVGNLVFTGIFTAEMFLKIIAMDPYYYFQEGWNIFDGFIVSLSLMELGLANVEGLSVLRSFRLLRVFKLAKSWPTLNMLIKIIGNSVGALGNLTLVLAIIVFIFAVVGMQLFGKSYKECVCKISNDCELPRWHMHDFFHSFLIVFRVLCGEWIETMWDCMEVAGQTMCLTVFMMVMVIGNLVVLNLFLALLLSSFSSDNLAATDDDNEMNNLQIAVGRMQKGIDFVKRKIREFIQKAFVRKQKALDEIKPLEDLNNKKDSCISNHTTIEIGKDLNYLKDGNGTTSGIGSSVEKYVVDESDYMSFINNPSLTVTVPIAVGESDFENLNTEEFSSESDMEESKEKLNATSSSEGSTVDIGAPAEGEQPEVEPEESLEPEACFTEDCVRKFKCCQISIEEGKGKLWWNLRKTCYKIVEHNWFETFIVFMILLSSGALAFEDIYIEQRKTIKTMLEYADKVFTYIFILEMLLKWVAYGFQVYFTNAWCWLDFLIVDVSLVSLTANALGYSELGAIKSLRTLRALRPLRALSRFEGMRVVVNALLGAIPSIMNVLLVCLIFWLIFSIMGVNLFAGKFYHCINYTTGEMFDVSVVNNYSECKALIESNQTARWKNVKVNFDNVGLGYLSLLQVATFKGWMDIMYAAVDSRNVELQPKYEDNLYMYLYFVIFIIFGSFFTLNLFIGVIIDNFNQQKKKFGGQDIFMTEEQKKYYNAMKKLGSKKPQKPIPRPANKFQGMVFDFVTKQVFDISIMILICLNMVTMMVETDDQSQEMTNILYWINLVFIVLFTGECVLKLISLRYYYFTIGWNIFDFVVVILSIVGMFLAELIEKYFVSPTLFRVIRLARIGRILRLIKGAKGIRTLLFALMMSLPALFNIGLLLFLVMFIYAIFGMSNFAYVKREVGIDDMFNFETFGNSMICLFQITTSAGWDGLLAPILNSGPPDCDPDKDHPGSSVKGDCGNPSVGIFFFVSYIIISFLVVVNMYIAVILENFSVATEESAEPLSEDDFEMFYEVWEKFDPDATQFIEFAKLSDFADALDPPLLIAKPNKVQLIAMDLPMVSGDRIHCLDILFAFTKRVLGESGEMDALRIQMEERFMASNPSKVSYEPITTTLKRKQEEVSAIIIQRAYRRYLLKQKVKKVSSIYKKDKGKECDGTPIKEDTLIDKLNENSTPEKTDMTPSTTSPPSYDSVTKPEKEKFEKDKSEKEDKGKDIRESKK
- procedure_details: Blockade of synaptosomal sodium channels, inhibition of [14C]guanidinium ion flux into CHO cells expressing Type II sodium channel
observable: IC50
Give the number first and the unit second.

Query :: Please supply the value of reported IC50 for the item CN1CCN(c2ncc(-c3cc(Cl)cc(Cl)c3Cl)c(N)n2)CC1
Result :: 2.55 µM

----------
- study_system: Sodium channel protein type 2 subunit alpha (Homo sapiens)
- procedure_details: Blockade of synaptosomal sodium channels, inhibition of [14C]guanidinium ion flux into CHO cells expressing Type II sodium channel
- Format: functional, cell-based
Quick reference for IC50 among some molecules
Provide only the numeric value, understood in µM.

For orientation, consider the following solved cases.
Nc1nc2ccc(OC(F)(F)F)cc2s1 [RILUZOLE] :: 2.2
N=C(Nc1ccc2c3c(cccc13)CC2)Nc1ccc2c3c(cccc13)CC2 :: 2.03

In the following, a different molecule is considered.
Query :: Determine from records and report IC50 for COc1ccc(/N=C(\N)Nc2ccc3c4c(cccc24)CC3)c2ccccc12
Result :: 1.31

----------
- Species on record: Rattus norvegicus
- procedure_details: Compound was evaluated for the inhibition of K+ -evoked glutamate release through block of voltage-gated [Ca2+] -channels, in the rat brain synaptosomal preparations
- Format: functional, organism-based
The entries below come with measured IC50 values attached.
Quick reminder: number only, in nM, skip the unit.

COc1ccc(/N=C(\N)Nc2ccc3c4c(cccc24)CC3)c2ccccc12 :: 1000

Query :: Find the measured IC50 of N=C(Nc1ccc2c3c(cccc13)CC2)Nc1ccc2c3c(cccc13)CC2 and report it.
Result :: 800
